Biological target: Tyrosine-protein phosphatase non-receptor type 1 (Homo sapiens)
Sequence (P18031 whole entry): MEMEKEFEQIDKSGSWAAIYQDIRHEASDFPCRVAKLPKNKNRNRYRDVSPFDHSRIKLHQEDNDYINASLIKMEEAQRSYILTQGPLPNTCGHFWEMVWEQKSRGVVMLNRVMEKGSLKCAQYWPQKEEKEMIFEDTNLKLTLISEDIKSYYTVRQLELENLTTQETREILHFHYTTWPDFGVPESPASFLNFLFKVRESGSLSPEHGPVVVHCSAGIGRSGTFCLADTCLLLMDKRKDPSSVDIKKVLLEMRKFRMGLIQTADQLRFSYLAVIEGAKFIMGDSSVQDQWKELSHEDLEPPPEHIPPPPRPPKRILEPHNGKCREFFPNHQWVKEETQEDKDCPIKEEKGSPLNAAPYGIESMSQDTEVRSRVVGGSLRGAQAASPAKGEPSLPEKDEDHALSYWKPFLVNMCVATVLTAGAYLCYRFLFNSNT
Starred links: 1 amine or outer side, 2 acyl side, 3 side chain; linkers in the order of their positions; H or OH if unused. Non-standard residues stand in square brackets, D forms with d. Residues, ends and D or L forms follow the SMILES beside them. X3 = O=C([C@@H](Cc1cccc(C(F)(F)P(=O)(O)O)c1)N[*:1])[*:2]
Measurement name: Ki (µM)

Reference set (2 entries):
**Query** Hello, I am looking for reported Ki with Tyrosine-protein phosphatase non-receptor type 1 (Homo sapiens) for NS(=O)(=O)c1cc(-c2ccc(CSCc3ccc(C(F)(F)S(=O)(=O)O)c(Br)c3)cc2)ccc1Br . Could you help?
**Result** 10.6

**Query** Find Ki (Tyrosine-protein phosphatase non-receptor type 1 (Homo sapiens)) for the entry CC(C)C[C@H](NC(=O)[C@@H](Cc1cccc(C(F)(F)P(=O)(O)O)c1)NC(=O)[C@H](CCC(=O)O)NC(=O)[C@H](CC(=O)O)NC(=O)[C@H](C)NC(=O)[C@@H](N)CC(=O)O)C(N)=O (H-DADE[X3]L-NH2)
**Result** 0.024

I: NS(=O)(=O)C(F)(F)c1cc(-c2ccc(CSCc3ccc(C(F)(F)P(=O)(O)O)c(Br)c3)cc2)ccc1Br
II: NS(=O)(=O)c1cc(-c2ccc(CSCc3ccc(CS(=O)(=O)O)c(Br)c3)cc2)ccc1Br
**Query** For the pair I and II , which member has the lower Ki number? Answer by stating the label of the chosen item.
**Result** I
(I: 0.024 µM, II: 10.3 µM)

---

Target: UniProtKB P18031
Sequence (P18031 whole entry): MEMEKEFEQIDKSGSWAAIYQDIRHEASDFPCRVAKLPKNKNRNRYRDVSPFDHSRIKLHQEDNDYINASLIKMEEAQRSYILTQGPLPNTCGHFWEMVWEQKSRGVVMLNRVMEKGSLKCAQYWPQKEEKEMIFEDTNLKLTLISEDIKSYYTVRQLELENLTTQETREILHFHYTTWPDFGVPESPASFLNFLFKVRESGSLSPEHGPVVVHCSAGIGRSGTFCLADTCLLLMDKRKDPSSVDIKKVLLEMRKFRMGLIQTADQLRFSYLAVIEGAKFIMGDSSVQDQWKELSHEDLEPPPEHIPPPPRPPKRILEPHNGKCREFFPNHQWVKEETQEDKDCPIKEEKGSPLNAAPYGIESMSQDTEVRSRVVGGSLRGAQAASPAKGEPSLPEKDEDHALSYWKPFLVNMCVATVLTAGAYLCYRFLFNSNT
Starred links: 1 amine or outer side, 2 acyl side, 3 side chain; linkers in the order of their positions; H or OH if unused. Non-standard residues stand in square brackets, D forms with d. Residues, ends and D or L forms follow the SMILES beside them. X1 = O=C([C@@H](Cc1cccc(C(F)(F)S(=O)(=O)O)c1)N[*:1])[*:2]; X2 = O=C([C@@H](Cc1cccc(CS(=O)(=O)O)c1)N[*:1])[*:2]
Measurement name: IC50 (µM)

Record excerpt, results attached:
**Query** Record request: IC50 value, item CC(C)C[C@H](NC(=O)[C@@H](Cc1cccc(C(F)(F)S(=O)(=O)O)c1)NC(=O)[C@H](CCC(=O)O)NC(=O)[C@H](CC(=O)O)NC(=O)[C@H](C)NC(=O)[C@@H](N)CC(=O)O)C(N)=O (H-DADE[X1]L-NH2)
**Result** 10

**Query** May I ask what IC50 has been recorded for O=P(O)(O)C(F)(F)c1ccc2ccccc2c1 ?
**Result** 35

A: NS(=O)(=O)c1cc(-c2ccc(CSCc3ccc(C(F)(F)S(=O)(=O)O)c(Br)c3)cc2)ccc1Br
B: CC(C)C[C@H](NC(=O)[C@@H](Cc1cccc(CS(=O)(=O)O)c1)NC(=O)[C@H](CCC(=O)O)NC(=O)[C@H](CC(=O)O)NC(=O)[C@H](C)NC(=O)[C@@H](N)CC(=O)O)C(N)=O (H-DADE[X2]L-NH2)
**Query** Recorded IC50 values differ for A and B ; which one is higher? # respond with the chosen item's label
**Result** B
(B: 44 µM, A: 13 µM)

Data provenance is ChEMBL document CHEMBL1158163.
